- Target desc: T1, human ST2L extracellular domain with C-terminal His6 tag (human, UniProt Q01638 19-328)
- T1 construct: also called huST2L-ECD; ST2L-ECD
- T1 sequence: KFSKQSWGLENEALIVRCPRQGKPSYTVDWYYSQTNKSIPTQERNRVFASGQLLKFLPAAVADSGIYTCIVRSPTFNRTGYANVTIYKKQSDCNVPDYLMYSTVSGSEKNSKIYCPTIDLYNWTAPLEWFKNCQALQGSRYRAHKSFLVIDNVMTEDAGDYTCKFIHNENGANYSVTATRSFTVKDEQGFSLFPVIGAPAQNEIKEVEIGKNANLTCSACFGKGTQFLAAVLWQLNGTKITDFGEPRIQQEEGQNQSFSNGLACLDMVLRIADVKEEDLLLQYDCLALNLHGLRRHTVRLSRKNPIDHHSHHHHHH
- Method summary: SPR, mAb captured, ST2L-ECD in solution
Entries whose Kd is below 0.09 nM take met; entries at or above 0.09 nM take not met.

| Binder | Classification |
| --- | --- |
| STLM215 (antibody, V domains shown, frameworks VH3-23 / Vk-L6) VH: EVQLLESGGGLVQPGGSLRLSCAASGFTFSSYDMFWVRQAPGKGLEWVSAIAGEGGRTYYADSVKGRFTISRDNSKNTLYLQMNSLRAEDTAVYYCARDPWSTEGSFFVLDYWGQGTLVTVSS VL: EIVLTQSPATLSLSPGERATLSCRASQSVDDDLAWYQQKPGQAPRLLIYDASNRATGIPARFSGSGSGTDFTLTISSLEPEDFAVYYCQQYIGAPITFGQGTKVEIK | met |
| STLM108 (antibody, V domains shown, frameworks VH3-23 / Vk-L6) VH: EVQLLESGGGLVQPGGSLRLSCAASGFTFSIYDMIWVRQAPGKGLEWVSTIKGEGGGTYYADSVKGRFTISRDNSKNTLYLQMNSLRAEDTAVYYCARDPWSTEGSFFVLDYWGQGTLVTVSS VL: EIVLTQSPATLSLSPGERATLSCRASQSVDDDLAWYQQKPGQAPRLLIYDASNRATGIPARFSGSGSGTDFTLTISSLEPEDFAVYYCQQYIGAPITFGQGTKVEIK | not met |
| STLM209 (antibody, V domains shown, frameworks VH3-23 / Vk-L6) VH: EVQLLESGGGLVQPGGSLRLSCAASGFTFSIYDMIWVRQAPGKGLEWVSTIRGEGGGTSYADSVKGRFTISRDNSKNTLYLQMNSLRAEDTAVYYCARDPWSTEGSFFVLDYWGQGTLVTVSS VL: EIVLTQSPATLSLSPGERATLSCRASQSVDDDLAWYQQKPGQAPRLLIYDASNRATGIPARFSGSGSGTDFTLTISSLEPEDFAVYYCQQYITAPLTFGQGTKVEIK | met |
| STLM211 (antibody, V domains shown, frameworks VH3-23 / Vk-L6) VH: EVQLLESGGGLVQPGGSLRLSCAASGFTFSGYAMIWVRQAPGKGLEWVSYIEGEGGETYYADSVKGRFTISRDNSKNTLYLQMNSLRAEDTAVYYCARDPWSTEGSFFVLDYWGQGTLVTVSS VL: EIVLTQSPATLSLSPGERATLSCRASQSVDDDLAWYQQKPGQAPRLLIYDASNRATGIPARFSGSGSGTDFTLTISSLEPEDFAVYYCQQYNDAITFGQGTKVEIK | met |
